meta.source: PubChem BioAssay AID2060344

# Tested on: SK-MEL-2 multi-cell spheroids, viability
# assaySummary: Anticancer human tumor SK-MEL-2 cell line growth inhibition [TAK];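 further: spheroids exposed to drugs for seven days before readout; percent of DMSO vehicle control luminescence so 100% = untreated viability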
# experimentalParameters: second compound 0.949 µM; first compound 0.00316 µM; active compounds read low
quantityMeasured: viability, T/C (%)
Give the value in % but do not write % after it.

// below: answered molecules
molecule	quantityMeasured	measuredNumber
CC(C)n1nc(-c2ccc3oc(N)nc3c2)c2c(N)ncnc21 + CC(C)NCC(C(=O)N1CCN(c2ncnc3c2C(C)CC3O)CC1)c1ccc(Cl)cc1	viability, T/C	58.7
COC1CC2CCC(C)C(O)(O2)C(=O)C(=O)N2CCCCC2C(=O)OC(C(C)CC2CCC(OCCO)C(OC)C2)CC(=O)C(C)C=C(C)C(O)C(OC)C(=O)C(C)CC(C)C=CC=CC=C1C (stereo not given) + CC(C)NCC(C(=O)N1CCN(c2ncnc3c2C(C)CC3O)CC1)c1ccc(Cl)cc1	viability, T/C	39.2

**Q:** Report viability, T/C for COc1c(OCCCN2CCOCC2)ccc2c3n(c(=NC(=O)c4cnc(N)nc4)nc12)CCN3 + CC(C)NCC(C(=O)N1CCN(c2ncnc3c2C(C)CC3O)CC1)c1ccc(Cl)cc1 please.
**A:** 81

**Q:** What would you report for CC(C)CC(NC(=O)C(Cc1ccccc1)NC(=O)c1cnccn1)B(O)O (stereo not given) + CC(C)NCC(C(=O)N1CCN(c2ncnc3c2C(C)CC3O)CC1)c1ccc(Cl)cc1 ?
**A:** 111

**Q:** // repeat for CC(C)CC(NC(=O)CNC(=O)c1cc(Cl)ccc1Cl)B1OC(=O)CC(CC(=O)O)(C(=O)O)O1 (stereo not given) + CC(C)NCC(C(=O)N1CCN(c2ncnc3c2C(C)CC3O)CC1)c1ccc(Cl)cc1 and report
**A:** 70.3

* * *

# Test system: SK-MEL-2 multi-cell spheroids, viability
# assaySummary: Anticancer human tumor SK-MEL-2 cell line growth inhibition [TAK];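 further: spheroids exposed to drugs for seven days before readout; percent of DMSO vehicle control luminescence so 100% = untreated viability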
# experimentalParameters: second compound 30 µM; first compound 0.316 µM; active compounds read low
Attribute: viability, T/C
# value in %; strip the unit string

Example molecules with recorded viability, T/C:
molecule	viability, T/C, %
CC(C)(C)c1nc(-c2cccc(NS(=O)(=O)c3c(F)cccc3F)c2F)c(-c2ccnc(N)n2)s1 + CC(C)NCC(C(=O)N1CCN(c2ncnc3c2C(C)CC3O)CC1)c1ccc(Cl)cc1	41.1
Cc1nc(NC(=O)N2CCCC2C(N)=O)sc1-c1ccnc(C(C)(C)C(F)(F)F)c1 (centres undefined) + CC(C)NCC(C(=O)N1CCN(c2ncnc3c2C(C)CC3O)CC1)c1ccc(Cl)cc1	46.2
CCCS(=O)(=O)Nc1ccc(F)c(C(=O)c2c[nH]c3ncc(-c4ccc(Cl)cc4)cc23)c1F + CC(C)NCC(C(=O)N1CCN(c2ncnc3c2C(C)CC3O)CC1)c1ccc(Cl)cc1	121

Now look at this one.
**Q:** Could you share which viability, T/C value was measured for COc1c(OCCCN2CCOCC2)ccc2c3n(c(=NC(=O)c4cnc(N)nc4)nc12)CCN3 + CC(C)NCC(C(=O)N1CCN(c2ncnc3c2C(C)CC3O)CC1)c1ccc(Cl)cc1 ?
**A:** 21.1

* * *

# Tested on: SK-MEL-2 multi-cell spheroids, viability
# assaySummary: Anticancer human tumor SK-MEL-2 cell line growth inhibition [TAK];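 further: spheroids exposed to drugs for seven days before readout; percent of DMSO vehicle control luminescence so 100% = untreated viability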
# experimentalParameters: second compound 30 µM; first compound 0.0316 µM; active compounds read low
quantityMeasured: viability, T/C (%)
Value expressed in %; do not type the unit.

These solved cases illustrate the format of a correct answer.
compound	readoutUnit	measuredNumber
COc1c(OCCCN2CCOCC2)ccc2c3n(c(=NC(=O)c4cnc(N)nc4)nc12)CCN3 + CC(C)NCC(C(=O)N1CCN(c2ncnc3c2C(C)CC3O)CC1)c1ccc(Cl)cc1	%	41.6
COC1CC2CCC(C)C(O)(O2)C(=O)C(=O)N2CCCCC2C(=O)OC(C(C)CC2CCC(OCCO)C(OC)C2)CC(=O)C(C)C=C(C)C(O)C(OC)C(=O)C(C)CC(C)C=CC=CC=C1C (stereo unspecified) + CC(C)NCC(C(=O)N1CCN(c2ncnc3c2C(C)CC3O)CC1)c1ccc(Cl)cc1	%	22
CC(C)CC(NC(=O)CNC(=O)c1cc(Cl)ccc1Cl)B1OC(=O)CC(CC(=O)O)(C(=O)O)O1 (stereo unspecified) + CC(C)NCC(C(=O)N1CCN(c2ncnc3c2C(C)CC3O)CC1)c1ccc(Cl)cc1	%	14.4
Cc1nc(NC(=O)N2CCCC2C(N)=O)sc1-c1ccnc(C(C)(C)C(F)(F)F)c1 (stereo unspecified) + CC(C)NCC(C(=O)N1CCN(c2ncnc3c2C(C)CC3O)CC1)c1ccc(Cl)cc1	%	52.4
CC(C)n1nc(-c2ccc3oc(N)nc3c2)c2c(N)ncnc21 + CC(C)NCC(C(=O)N1CCN(c2ncnc3c2C(C)CC3O)CC1)c1ccc(Cl)cc1	%	20.7

**Q:** Could you tell me which viability, T/C is on file for CC(C)(C)c1nc(-c2cccc(NS(=O)(=O)c3c(F)cccc3F)c2F)c(-c2ccnc(N)n2)s1 + CC(C)NCC(C(=O)N1CCN(c2ncnc3c2C(C)CC3O)CC1)c1ccc(Cl)cc1 ?
**A:** 73.1
